Measured kon, listed per entry.
Target: T1, Cynomolgus monkey BCMA (cynomolgus monkey)
T1 construct: Soluble analyte in SPR; also called cyBCMA; Cyno BCMA
Test: SPR, IgG immobilised, cyno BCMA analyte
Numbers only; they are read as M⁻¹ s⁻¹.

BINDER	REPORTED MEASUREMENT
C01_Rd4_6nM_C10 (antibody, V domains shown, IgG) VH: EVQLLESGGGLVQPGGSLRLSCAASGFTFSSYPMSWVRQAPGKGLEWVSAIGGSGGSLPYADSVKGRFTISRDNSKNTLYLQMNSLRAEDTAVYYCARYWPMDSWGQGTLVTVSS VL: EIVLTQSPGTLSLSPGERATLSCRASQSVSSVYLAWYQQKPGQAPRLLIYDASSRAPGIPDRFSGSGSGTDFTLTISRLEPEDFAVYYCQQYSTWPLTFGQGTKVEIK	4.44e+06

### Prompt Which kon value belongs to A02_Rd4_6nM_C10 (antibody, V domains shown, IgG) VH: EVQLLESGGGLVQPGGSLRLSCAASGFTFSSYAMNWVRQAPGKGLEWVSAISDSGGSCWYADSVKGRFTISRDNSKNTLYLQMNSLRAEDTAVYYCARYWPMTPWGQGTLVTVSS VL: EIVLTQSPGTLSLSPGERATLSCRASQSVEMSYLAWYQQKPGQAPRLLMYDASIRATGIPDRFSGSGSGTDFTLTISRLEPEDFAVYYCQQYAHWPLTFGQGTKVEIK ?
### Response 1.9e+06

### Prompt Now the same for A02_Rd4_6nM_C25 (antibody, V domains shown, IgG) VH: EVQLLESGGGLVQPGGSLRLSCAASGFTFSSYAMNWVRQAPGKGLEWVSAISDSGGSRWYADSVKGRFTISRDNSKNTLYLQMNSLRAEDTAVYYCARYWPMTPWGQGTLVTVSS VL: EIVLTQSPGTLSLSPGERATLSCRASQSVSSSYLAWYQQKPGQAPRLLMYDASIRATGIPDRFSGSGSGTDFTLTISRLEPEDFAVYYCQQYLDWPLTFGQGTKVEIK
### Response 1.5e+06
